Values compiled from ChEMBL document CHEMBL5579834.

- assay.remarks: Selectivity index, ratio of CC50 for HEK293T cells to IC50 for antiviral activity against HIV-based lentiviral pseudotyped Marburgvirus harboring mucin domain deleted GP infected in HEK293T cells assessed as inhibition of viral entry
- Type: toxicity, cell-based
- condition: human, read-out: Ratio CC50/IC50
Each record is given y if its reported selectivity ratio is strictly below 6. Records at or above 6 are given n.

{"structure.string": "CC1(C)[C@H]2CC[C@](C)(C2)[C@H]1OC(=O)CN1CCCCC1", "label.value": "y"}
{"structure.string": "C[C@@H]1[C@H]2C[C@@H](C[C@H]1OC(=O)CCCN1CCOCC1)C2(C)C", "label.value": "y"}
{"structure.string": "C[C@@H]1[C@H]2C[C@@H](C[C@H]1OC(=O)CN1CCCCC1)C2(C)C", "label.value": "y"}
{"structure.string": "CCN1CCN(CCC(=O)O[C@H]2C(C)(C)[C@H]3CC[C@]2(C)C3)CC1", "label.value": "n"}
{"structure.string": "C[C@@H]1[C@H]2C[C@@H](C[C@H]1OC(=O)CCN1CCCCC1)C2(C)C", "label.value": "n"}
{"structure.string": "CN1CCN(CCC(=O)O[C@H]2C(C)(C)[C@H]3CC[C@]2(C)C3)CC1", "label.value": "n"}
{"structure.string": "CC1(C)[C@H]2CC[C@](C)(C2)[C@H]1OC(=O)CN1CCOCC1", "label.value": "y"}
{"structure.string": "CC1(C)[C@H]2CC[C@](C)(C2)[C@H]1OC(=O)CCCN1CCOCC1", "label.value": "y"}
{"structure.string": "CC1CCN(CCC(=O)O[C@H]2C(C)(C)[C@H]3CC[C@]2(C)C3)CC1", "label.value": "n"}
{"structure.string": "C[C@@H]1[C@H]2C[C@@H](C[C@H]1OC(=O)CCN1CCOCC1)C2(C)C", "label.value": "y"}
{"structure.string": "C[C@@H]1[C@H]2C[C@@H](C[C@H]1OC(=O)CCCN1CCN(c3ccccc3)CC1)C2(C)C", "label.value": "y"}
{"structure.string": "CC1(C)[C@H]2CC[C@](C)(C2)[C@H]1OC(=O)CCN1CCN(c2ccccc2)CC1", "label.value": "y"}
{"structure.string": "C[C@@H]1[C@H]2C[C@@H](C[C@H]1OC(=O)CCN1CCN(c3ccccc3)CC1)C2(C)C", "label.value": "y"}
{"structure.string": "CC1(C)[C@H]2CC[C@](C)(C2)[C@H]1OC(=O)CN1CCN(c2ccccc2)CC1", "label.value": "y"}
{"structure.string": "CC1(C)[C@H]2CC[C@](C)(C2)[C@H]1OC(=O)CCCN1CCN(c2ccccc2)CC1", "label.value": "n"}
{"structure.string": "C[C@@H]1[C@H]2C[C@@H](C[C@H]1OC(=O)CCCN1CCCCC1)C2(C)C", "label.value": "n"}
{"structure.string": "CC1(C)[C@H]2CC[C@](C)(C2)[C@H]1OC(=O)CCN1CCCCC1", "label.value": "n"}
{"structure.string": "C[C@@H]1[C@H]2C[C@@H](C[C@H]1OC(=O)CN1CCN(c3ccccc3)CC1)C2(C)C", "label.value": "y"}

* * *

- assay.remarks: Selectivity index, ratio of CC50 for HEK293T cells to IC50 for antiviral activity against HIV-based lentiviral pseudotyped Ebolavirus harboring mucin domain deleted GP infected in HEK293T cells assessed as inhibition of viral entry
- Assay type: toxicity, cell-based
- condition: human, read-out: Ratio CC50/IC50
Lab note - cut at 8 for selectivity ratio: TRUE if strictly below, FALSE if not.

{"structure.string": "CC1(C)[C@H]2CC[C@](C)(C2)[C@H]1OC(=O)CN1CCCCC1", "label.value": "FALSE"}
{"structure.string": "C[C@@H]1[C@H]2C[C@@H](C[C@H]1OC(=O)CCN1CCN(c3ccccc3)CC1)C2(C)C", "label.value": "TRUE"}
{"structure.string": "C[C@@H]1[C@H]2C[C@@H](C[C@H]1OC(=O)CCCN1CCN(C)CC1)C2(C)C", "label.value": "FALSE"}
{"structure.string": "C[C@@H]1[C@H]2C[C@@H](C[C@H]1OC(=O)CN1CCOCC1)C2(C)C", "label.value": "TRUE"}
{"structure.string": "CC1(C)[C@H]2CC[C@](C)(C2)[C@H]1OC(=O)CCN1CCN(c2ccccc2)CC1", "label.value": "TRUE"}
{"structure.string": "C[C@@H]1[C@H]2C[C@@H](C[C@H]1OC(=O)CCCN1CCCCC1)C2(C)C", "label.value": "FALSE"}
{"structure.string": "CC1(C)[C@H]2CC[C@](C)(C2)[C@H]1OC(=O)CCN1CCCCC1", "label.value": "FALSE"}
{"structure.string": "C[C@@H]1[C@H]2C[C@@H](C[C@H]1OC(=O)CN1CCCCC1)C2(C)C", "label.value": "TRUE"}
{"structure.string": "CC1(C)[C@H]2CC[C@](C)(C2)[C@H]1OC(=O)CCCN1CCN(c2ccccc2)CC1", "label.value": "FALSE"}
{"structure.string": "CCN1CCN(CCC(=O)O[C@H]2C(C)(C)[C@H]3CC[C@]2(C)C3)CC1", "label.value": "FALSE"}
